Molecular target: T1, TauC3 (C-terminally truncated tau fragment ending at aspartate 421 of htau40) (human, UniProt P10636 1-738)
T1 construct: Generated and purified by Genscript; also called Human TauC3; recombinant TauC3 protein
T1 sequence (P10636 other isoform, or with tags, fused parts or gaps): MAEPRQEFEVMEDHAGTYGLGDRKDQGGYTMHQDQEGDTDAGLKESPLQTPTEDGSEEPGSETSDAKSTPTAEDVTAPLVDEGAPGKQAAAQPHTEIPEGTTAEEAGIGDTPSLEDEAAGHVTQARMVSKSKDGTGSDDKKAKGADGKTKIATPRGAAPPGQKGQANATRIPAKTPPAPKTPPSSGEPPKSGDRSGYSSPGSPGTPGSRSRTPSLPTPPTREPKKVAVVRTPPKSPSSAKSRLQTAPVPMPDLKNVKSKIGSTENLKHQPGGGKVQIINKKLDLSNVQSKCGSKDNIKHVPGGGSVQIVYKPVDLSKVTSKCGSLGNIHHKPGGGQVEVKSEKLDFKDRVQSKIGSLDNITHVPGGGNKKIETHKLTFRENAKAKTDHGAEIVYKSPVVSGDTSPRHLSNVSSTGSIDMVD
Assay: SPR (Biacore) kinetics, TauC3 amine-coupled on CM5, 1:1 global fit
Listed here: items and their measured kon.
Your answer is read as M⁻¹ s⁻¹, so omit the unit and give the number.

BINDER	RESULT_UNITS	kon
Tau01 HMKM HuG4k (antibody, V domains shown, human IgG4 kappa (HuG4K)) VH: LVQLVESGGGLVQPGGSLKLSCAASGFTFNTYAMNWVRQASGKGLEWVARIRSKSNNYATYYAASVKGRFTISRDDSKSMAYLQMDSLKTEDTAVYYCVGGGDFWGQGTLVTVSS VL: DIQMTQSPSSLSASVGDRVTITCRASQEISVYLSWFQQKPGKAIKRLIYGAFSLQSGVPSRFSGSRSGTEYTLTISSLQPEDFATYYCLQYVRYPWTFGGGTKVEIK	M⁻¹ s⁻¹	1.65e+08
Tau01 HMKE HuG4k (antibody, V domains shown, human IgG4 kappa (HuG4K); also called KMKE) VH: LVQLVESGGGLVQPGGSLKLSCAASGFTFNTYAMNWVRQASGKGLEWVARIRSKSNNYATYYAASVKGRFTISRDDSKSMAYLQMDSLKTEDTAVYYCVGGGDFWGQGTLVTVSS VL: DIQMTQSPSSLSASVGDRVTITCRASQEISVYLGWFQQKPGKAPKRLIYGAFKLQSGVPSRFSGSRSGTEFTLTISSLQPEDFATYYCLQYVRYPWTFGGGTKVEIK	M⁻¹ s⁻¹	1.41e+08

Next up:
Please look at this binder and report its kon: MoTau01 HuG4K chimeric antibody (antibody, V domains shown, Mouse variable regions with human IgG4 / kappa constant regions (pHuG4, pHuK); also called chimeric Tau01) VH: EVQVVESGGGLVQPKGSLKLSCAASGFTFNTYAMNWVRQAPGKGLEWVARIRSKSNNYATYYADSVKDRFTISRDDSQSMVYLQMNNLKTEDTAMYYCVGGGDFWGQGTALTVSS VL: DIQMTQSPSSLSASLGERVSLTCRASQEISVYLSWFQQKPDGTIKRLIYGAFTLDSGVPKRFSGSRSGSDYSLTISSLESEDFADYYCLQYVRYPWTFGGGTKLEIK 1.29e+07
